All figures here come from ChEMBL document CHEMBL5107986.

# System: Hepatitis C virus
# assay.remarks: Antiviral activity against HCV GT1b C316Y assessed as reduction in viral replication
# Type: functional, organism-based, Hepacivirus hominis
pEC50: −log10 of the molar value.

{"smiles.notation": "CNC(=O)c1c(-c2ccc(F)cc2)oc2cc(N(Cc3ccc(B(O)O)c(F)c3)S(C)(=O)=O)c(C3CC3)cc12", "target.system": "Hepatitis C virus", "pEC50": 8.72}
{"smiles.notation": "CNC(=O)c1c(-c2ccc(F)cc2)oc2cc(N(C)S(C)(=O)=O)c(-c3ccc4c(n3)-c3cc5c(F)cccc5n3CO4)cc12", "target.system": "Hepatitis C virus", "pEC50": 8.14}
{"smiles.notation": "CNC(=O)c1c(-c2ccc(F)cc2)oc2cc(N(C)S(C)(=O)=O)c(-c3ccc(OC)c(-c4nc5c(F)cccc5o4)c3)cc12", "target.system": "Hepatitis C virus", "pEC50": 8.04}
